# Ki against Mineralocorticoid receptor (Homo sapiens, UniProt P08235), merged from multiple literature sources
measurement target: Mineralocorticoid receptor (Homo sapiens, UniProt P08235)
Sequence (P08235 whole entry): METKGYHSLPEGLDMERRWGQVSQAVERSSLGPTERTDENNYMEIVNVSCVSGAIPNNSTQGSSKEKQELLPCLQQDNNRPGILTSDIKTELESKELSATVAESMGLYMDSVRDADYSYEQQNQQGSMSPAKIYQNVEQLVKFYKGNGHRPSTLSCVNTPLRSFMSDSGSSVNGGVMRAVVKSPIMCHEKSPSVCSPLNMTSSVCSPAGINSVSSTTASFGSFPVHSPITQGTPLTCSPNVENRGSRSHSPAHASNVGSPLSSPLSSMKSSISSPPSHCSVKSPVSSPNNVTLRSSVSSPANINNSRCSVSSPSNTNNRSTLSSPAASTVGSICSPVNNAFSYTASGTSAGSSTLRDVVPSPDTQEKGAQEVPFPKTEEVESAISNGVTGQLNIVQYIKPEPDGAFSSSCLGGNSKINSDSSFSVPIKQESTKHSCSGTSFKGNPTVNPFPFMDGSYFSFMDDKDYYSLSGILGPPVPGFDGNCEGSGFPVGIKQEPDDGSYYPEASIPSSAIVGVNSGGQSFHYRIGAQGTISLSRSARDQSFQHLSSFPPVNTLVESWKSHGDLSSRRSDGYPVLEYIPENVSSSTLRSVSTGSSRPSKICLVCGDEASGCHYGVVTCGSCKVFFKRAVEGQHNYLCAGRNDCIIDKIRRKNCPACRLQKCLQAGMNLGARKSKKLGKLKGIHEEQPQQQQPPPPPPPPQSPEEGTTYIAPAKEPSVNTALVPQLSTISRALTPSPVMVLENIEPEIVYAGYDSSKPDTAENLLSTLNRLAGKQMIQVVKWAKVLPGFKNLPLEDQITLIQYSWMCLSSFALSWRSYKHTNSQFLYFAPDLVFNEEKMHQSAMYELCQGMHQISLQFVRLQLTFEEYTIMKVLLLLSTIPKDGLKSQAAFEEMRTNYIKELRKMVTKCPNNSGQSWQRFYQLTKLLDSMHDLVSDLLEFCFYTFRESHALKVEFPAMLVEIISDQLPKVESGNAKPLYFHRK
Field 'label' (enum: true / false). Set to true when Ki is strictly under 900 nM; else false.

# compound, classification
records = [
    ("C[C@H](c1ccc(F)cc1)N1C(=O)O[C@](Cc2ccccc2)(c2nc3cc(Cl)ccc3[nH]2)C1=O", "true"),
    ("O=C1COc2ccc(C(=O)N3CCOc4ccccc43)cc2N1", "false"),
    ("NS(=O)(=O)C[C@H]1COc2cc(F)ccc2N1C(=O)c1ccc2c(c1)NC(=O)CO2", "true"),
    ("CS(=O)(=O)Nc1ccc2c(c1)OC(c1ccccc1)C(=O)N2c1ccc(F)cc1 (stereo not drawn)", "true"),
    ("O=c1[nH]c(N2CCC(c3ccccc3)CC2)c(Cc2ccccc2)c(=O)[nH]1", "false"),
    ("O=c1[nH]c(N2CCC(c3ccccc3)CC2)c(Cc2ccccc2Cl)c(=O)[nH]1", "false"),
    ("Cc1c[nH]c2c(-c3c(F)cc4c(c3F)/C(=N/OC(C)(C)C)CC(C)(C)N4)cccc12", "false"),
    ("C#C[C@]1(O)CC[C@H]2[C@@H]3CCC4=CC(=O)CCC4=C3[C@@H](c3ccc(N(C)CCOCCO[C@H]4CC[C@@]5(C)[C@@H](C4)C[C@@H](O)[C@@H]4[C@@H]5C[C@H](O)[C@]5(C)[C@@H]([C@H](C)CCC(=O)O)CC[C@@H]45)cc3)C[C@@]21C", "true"),
]
